# credit: patent US12319739

Task for the reader: assign each of the following binders its reported IL-2 release EC50, NCI-H226 co-culture, Donor A.
# tested target: human CD137 on primary human CD8+ T cells (human, UniProt Q07011 24-255)
# Sequence (Q07011 24-255): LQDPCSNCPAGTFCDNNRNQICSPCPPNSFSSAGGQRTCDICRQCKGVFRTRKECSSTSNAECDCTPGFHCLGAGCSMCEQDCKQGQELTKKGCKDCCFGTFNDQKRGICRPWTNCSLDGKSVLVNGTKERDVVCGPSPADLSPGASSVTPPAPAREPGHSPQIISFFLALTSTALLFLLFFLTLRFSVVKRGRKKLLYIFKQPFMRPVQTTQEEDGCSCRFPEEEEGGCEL
# measurement description: cell-based or functional assay
Answers are plain numbers, in nM.

Solved cases (2 shown):
FS22-172-003-AA/FS28-024 (bispecific antibody, human IgG1, kappa, L234A L235A, V domains shown, IgG1 mAb^2 with LALA; also called FS28-024 in CD137 mAb^2 format) VH: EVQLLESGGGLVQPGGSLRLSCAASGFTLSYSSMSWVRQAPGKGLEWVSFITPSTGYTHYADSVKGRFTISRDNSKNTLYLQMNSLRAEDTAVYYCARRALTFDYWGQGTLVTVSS VL: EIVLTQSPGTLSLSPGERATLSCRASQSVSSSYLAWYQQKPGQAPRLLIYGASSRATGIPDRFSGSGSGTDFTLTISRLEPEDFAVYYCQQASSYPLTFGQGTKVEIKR | 0.02
FS22-172-003-AA/FS28-024-052 (bispecific antibody, human IgG1, kappa, L234A L235A, V domains shown, IgG1 mAb^2 with LALA) VH: EVQLLESGGGLVQPGGSLRLSCAASGFTLSYSSMSWVRQAPGKGLEWVSFITPSTGYTHYADSVKGRFTISRDNSKNTLYLQMNSLRAEDTAVYYCARRALLFDYWGQGTLVTVSS VL: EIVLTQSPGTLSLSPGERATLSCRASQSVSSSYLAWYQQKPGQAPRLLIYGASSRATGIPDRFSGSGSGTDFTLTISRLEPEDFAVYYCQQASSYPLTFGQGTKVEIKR | 0.04

Documented IL-2 release EC50, NCI-H226 co-culture, Donor A of FS22-172-003-AA/FS28-256-018 (bispecific antibody, human IgG1, kappa, L234A L235A, V domains shown, IgG1 mAb^2 with LALA) VH: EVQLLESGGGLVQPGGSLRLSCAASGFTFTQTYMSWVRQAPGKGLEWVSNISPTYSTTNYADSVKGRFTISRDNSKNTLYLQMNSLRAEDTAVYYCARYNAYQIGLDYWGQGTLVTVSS VL: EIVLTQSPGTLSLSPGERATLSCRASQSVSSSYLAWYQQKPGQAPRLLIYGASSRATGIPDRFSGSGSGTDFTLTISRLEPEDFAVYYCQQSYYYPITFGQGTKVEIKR : 3.22
